Reported relative viability values for a set of compounds
Tested on: HOP-62
experimental details: relative viability (nuclei count vs DMSO), 5 days (fraction); higher = more cells survive
cond: first compound 2.53 µM

These solved cases illustrate the format of a correct answer.
1. Nc1cccc2c1CN(C1CCC(=O)NC1=O)C2=O (stereo not given) [Lenalidomide] + CCNC(=O)c1noc(-c2cc(C(C)C)c(O)cc2O)c1-c1ccc(CN2CCOCC2)cc1 [Luminespib] (partner 0.01 µM)
0.899
2. Nc1cccc2c1CN(C1CCC(=O)NC1=O)C2=O (stereo not given) [Lenalidomide] + O=C(CCCCCCC(=O)Nc1ccccc1)NO [Vorinostat] (partner 1 µM)
0.662
3. Nc1cccc2c1CN(C1CCC(=O)NC1=O)C2=O (stereo not given) [Lenalidomide] + NC(=O)Nc1cc(-c2cccc(F)c2)sc1C(=O)N[C@H]1CCCNC1 [AZD7762] (partner 0.2 µM)
0.711
4. Nc1cccc2c1CN(C1CCC(=O)NC1=O)C2=O (stereo not given) [Lenalidomide] + Cc1nc(NC(=O)N2CCC[C@H]2C(N)=O)sc1-c1ccnc(C(C)(C)C(F)(F)F)c1 [Alpelisib] (partner 2 µM)
0.984

Then this compound:
Query block: Looking for the measured relative viability of Nc1cccc2c1CN(C1CCC(=O)NC1=O)C2=O (stereo not given) [Lenalidomide] + C[C@@H](Oc1cc(-c2cnn(C3CCNCC3)c2)cnc1N)c1c(Cl)ccc(F)c1Cl [Crizotinib] (partner 1 µM) , can you help?
Result block: 0.938
